Recorded pIC50, one value per entry.
system: 855422-203-R-J1-PDC complex spheroid viability; experiment: Anticancer human tumor 855422-203-R-J1-PDC patient-derived bladder carcinoma cell line growth inhibition; conditions: curve of first compound; second compound 10 µM
Answer as the number alone; pIC50 is minus log10 of concentration in mol/L.

compound="CC1(C)CCC(CN2CCN(c3ccc(C(=O)NS(=O)(=O)c4ccc(NCC5CCOCC5)c([N+](=O)[O-])c4)c(Oc4cnc5[nH]ccc5c4)c3)CC2)=C(c2ccc(Cl)cc2)C1 + NC1CCC(NC2CC2c2ccccc2)CC1" test_value=5.26

Please turn your attention to the following entry.
Challenge: Write down the reported pIC50 (system: 855422-203-R-J1-PDC complex spheroid viability) of NS(=O)(=O)OCC1CC(n2ccc3c(NC4CCc5ccccc54)ncnc32)CC1O (stereo not drawn) + NC1CCC(NC2CC2c2ccccc2)CC1
Response given: 6.33

###

test system: 855422-203-R-J1-PDC complex spheroid viability; test: Anticancer human tumor 855422-203-R-J1-PDC cell line growth inhibition; details: second compound 10 µM; first compound 1 µM; stronger effect = lower value;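 also: drug exposure lasted 7 days starting on day 3 after seeding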;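 as to viability, T/C: luminescence viability as percent of DMSO vehicle wells = 100%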
viability, T/C for assorted compounds
Answer in %, number only, no unit symbol.

Sample answers from the record:
compound="COc1cc(Nc2ncc3c(n2)-c2ccc(Cl)cc2C(c2c(F)cccc2OC)=NC3)ccc1C(=O)O + NC1CC1c1ccc(-c2cccc(O)c2)cc1" units_text=% test_value=39.5
compound="CC1COCCN1c1cc(-c2ccnn2C)c2ccnc(-c3ccn[nH]3)c2n1 (configuration not stated) + NC1CCC(NC2CC2c2ccccc2)CC1" units_text=% test_value=31.7
compound="CC1COCCN1c1cc(C2(S(C)(=N)=O)CC2)nc(-c2ccnc3[nH]ccc23)n1 (configuration not stated) + NC1CCC(NC2CC2c2ccccc2)CC1" units_text=% test_value=77.8
compound="O=C(C=Cn1cnc(-c2cc(C(F)(F)F)cc(C(F)(F)F)c2)n1)NNc1cnccn1 + NC1CC1c1ccc(-c2cccc(O)c2)cc1" units_text=% test_value=20.1
compound="O=C(c1cc(Cc2n[nH]c(=O)c3ccccc23)ccc1F)N1CCN(C(=O)C2CC2)CC1 + NC1CCC(NC2CC2c2ccccc2)CC1" units_text=% test_value=82.6

Challenge: Please give the documented viability, T/C of CC1COCCN1c1cc(-c2ccnn2C)c2ccnc(-c3ccn[nH]3)c2n1 (configuration not stated) + NC1CC1c1ccc(-c2cccc(O)c2)cc1
Response given: 26.1

Challenge: Consider the compound COc1cc(Nc2ncc3c(n2)-c2ccc(Cl)cc2C(c2c(F)cccc2OC)=NC3)ccc1C(=O)O + NC1CCC(NC2CC2c2ccccc2)CC1 . State its measured viability, T/C.
Response given: 52.6

###

test system: 855422-203-R-J1-PDC complex spheroid viability; experiment: Anticancer human tumor 855422-203-R-J1-PDC cell line growth inhibition; details: second compound 1 µM; first compound 0.03 µM; stronger effect = lower value;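 also: drug exposure lasted 7 days starting on day 3 after seeding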;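 as to viability, T/C: luminescence viability as percent of DMSO vehicle wells = 100%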
Value Type: viability, T/C (%)
Dear colleague, please return just the value in %, with no unit written.

Challenge: Quote viability, T/C with test system 855422-203-R-J1-PDC complex spheroid viability for COc1cc(C2c3cc4c(cc3C(OC3OC5COC(C)OC5C(O)C3O)C3COC(=O)C23)OCO4)cc(OC)c1O (stereo unspecified) + NC1CC1c1ccc(-c2cccc(O)c2)cc1
Response given: 95.8

Challenge: State viability, T/C (855422-203-R-J1-PDC complex spheroid viability) of COc1cc(C2c3cc4c(cc3C(OC3OC5COC(C)OC5C(O)C3O)C3COC(=O)C23)OCO4)cc(OC)c1O (stereo unspecified) + NC1CCC(NC2CC2c2ccccc2)CC1 .
Response given: 81.9

Challenge: State the measured viability, T/C (855422-203-R-J1-PDC complex spheroid viability) of CCN(c1cc(-c2ccc(CN3CCOCC3)cc2)cc(C(=O)NCc2c(C)cc(C)[nH]c2=O)c1C)C1CCOCC1 + NC1CC1c1ccc(-c2cccc(O)c2)cc1
Response given: 89.3

###

test system: 855422-203-R-J1-PDC complex spheroid viability; assay: Anticancer human tumor 855422-203-R-J1-PDC cell line growth inhibition; settings: second compound 10 µM; first compound 0.316 µM; stronger effect = lower value;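 also: drug exposure lasted 7 days starting on day 3 after seeding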;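 as to viability, T/C: luminescence viability as percent of DMSO vehicle wells = 100%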
Value Type: viability, T/C (%)
State the answer as a number, implicitly in %.

Here is how some compounds turned out for viability, T/C.
compound="O=C(C=Cn1cnc(-c2cc(C(F)(F)F)cc(C(F)(F)F)c2)n1)NNc1cnccn1 + NC1CCC(NC2CC2c2ccccc2)CC1" test_value=37.5
compound="O=C(c1cc(Cc2n[nH]c(=O)c3ccccc23)ccc1F)N1CCN(C(=O)C2CC2)CC1 + NC1CC1c1ccc(-c2cccc(O)c2)cc1" test_value=85.1
compound="CC(C)c1c(-c2ccccc2)nc2c(C#N)c[nH]n2c1=O + NC1CCC(NC2CC2c2ccccc2)CC1" test_value=84.4

Query compound follows.
Challenge: Supply measured viability, T/C of COc1ccc([C@@H](O)c2cc(-c3ncnc4cc(N5CCOCC5)ccc34)c(F)cc2Cl)nn1 + NC1CC1c1ccc(-c2cccc(O)c2)cc1 in your reply.
Response given: 75.2

###

tested on: 855422-203-R-J1-PDC complex spheroid viability; assay: Anticancer human tumor 855422-203-R-J1-PDC cell line growth inhibition; conditions: second compound 3.16 µM; first compound 0.001 µM; stronger effect = lower value;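 also: drug exposure lasted 7 days starting on day 3 after seeding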;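 as to viability, T/C: luminescence viability as percent of DMSO vehicle wells = 100%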
Value Type: viability, T/C (%)
The reply should contain only the number, in %.

Worked cases, viability, T/C given:
molecule="CC(C)CC(NC(=O)CNC(=O)c1cc(Cl)ccc1Cl)B1OC(=O)CC(CC(=O)O)(C(=O)O)O1 (stereo not drawn) + NC1CCC(NC2CC2c2ccccc2)CC1" units_text=% test_value=85.3
molecule="CC[C@@]1(O)C(=O)OCc2c1cc1n(c2=O)Cc2cc3c(CN(C)C)c(O)ccc3nc2-1 + NC1CCC(NC2CC2c2ccccc2)CC1" units_text=% test_value=83.5

Please turn your attention to the following entry.
Challenge: Report viability, T/C, nothing else, for this molecule: CC(C)CC(NC(=O)CNC(=O)c1cc(Cl)ccc1Cl)B1OC(=O)CC(CC(=O)O)(C(=O)O)O1 (stereo not drawn) + NC1CC1c1ccc(-c2cccc(O)c2)cc1
Response given: 94.6

###

system: 855422-203-R-J1-PDC complex spheroid viability; test: Anticancer human tumor 855422-203-R-J1-PDC cell line growth inhibition; conditions: second compound 1 µM; first compound 0.0316 µM; stronger effect = lower value;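 also: drug exposure lasted 7 days starting on day 3 after seeding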;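 as to viability, T/C: luminescence viability as percent of DMSO vehicle wells = 100%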
Lab note: anything with viability, T/C below 80% is marked t; values at 80% or higher are marked f.

Record excerpt, results attached:
molecule="O=C(c1cc(Cc2n[nH]c(=O)c3ccccc23)ccc1F)N1CCN(C(=O)C2CC2)CC1 + NC1CCC(NC2CC2c2ccccc2)CC1" classification=f
molecule="Nc1ncn(C2CC(O)C(CO)O2)c(=O)n1 (stereo not given) + NC1CCC(NC2CC2c2ccccc2)CC1" classification=f
molecule="CC1COCCN1c1cc(-c2ccnn2C)c2ccnc(-c3ccn[nH]3)c2n1 (stereo not given) + NC1CC1c1ccc(-c2cccc(O)c2)cc1" classification=f
molecule="COc1cc(Nc2ncc3c(n2)-c2ccc(Cl)cc2C(c2c(F)cccc2OC)=NC3)ccc1C(=O)O + NC1CC1c1ccc(-c2cccc(O)c2)cc1" classification=t
molecule="Cn1ncnc1C1c2n[nH]c(=O)c3cc(F)cc(c23)NC1c1ccc(F)cc1 (stereo not given) + NC1CCC(NC2CC2c2ccccc2)CC1" classification=f

Challenge: Consider CC(C)CC(NC(=O)C(Cc1ccccc1)NC(=O)c1cnccn1)B(O)O (stereo not given) + NC1CC1c1ccc(-c2cccc(O)c2)cc1 . Does its viability, T/C lie strictly below 80%?
Response given: t

Challenge: Lab log: compare recorded viability, T/C with 80%; is it strictly lower for Nc1ncn(C2CC(O)C(CO)O2)c(=O)n1 (stereo not given) + NC1CC1c1ccc(-c2cccc(O)c2)cc1 ?
Response given: f

Challenge: Please let me know if O=C(C=Cn1cnc(-c2cc(C(F)(F)F)cc(C(F)(F)F)c2)n1)NNc1cnccn1 + NC1CCC(NC2CC2c2ccccc2)CC1 shows viability, T/C below 80%.
Response given: t

Challenge: Does this molecule meet the criterion viability, T/C < 80%? CC(C)CC(NC(=O)CNC(=O)c1cc(Cl)ccc1Cl)B1OC(=O)CC(CC(=O)O)(C(=O)O)O1 (stereo not given) + NC1CCC(NC2CC2c2ccccc2)CC1
Response given: t

Challenge: Would you kindly verify if viability, T/C of Cn1ncnc1C1c2n[nH]c(=O)c3cc(F)cc(c23)NC1c1ccc(F)cc1 (stereo not given) + NC1CC1c1ccc(-c2cccc(O)c2)cc1 is strictly less than 80%?
Response given: f

Challenge: Is viability, T/C of CC1COCCN1c1cc(-c2ccnn2C)c2ccnc(-c3ccn[nH]3)c2n1 (stereo not given) + NC1CCC(NC2CC2c2ccccc2)CC1 strictly below 80%?
Response given: f

Challenge: Does CC(C)c1c(-c2ccccc2)nc2c(C#N)c[nH]n2c1=O + NC1CCC(NC2CC2c2ccccc2)CC1 have viability, T/C strictly under 80%?
Response given: f

Challenge: Does the reported viability, T/C of the following molecule sit strictly below 80%? O=C(C=Cn1cnc(-c2cc(C(F)(F)F)cc(C(F)(F)F)c2)n1)NNc1cnccn1 + NC1CC1c1ccc(-c2cccc(O)c2)cc1
Response given: t

Challenge: Confirm or reject: viability, T/C of CC[C@@]1(O)C(=O)OCc2c1cc1n(c2=O)Cc2cc3c(CN(C)C)c(O)ccc3nc2-1 + NC1CCC(NC2CC2c2ccccc2)CC1 lies strictly below 80%
Response given: t

Challenge: viability, T/C strictly < 80% for this molecule? CC1COCCN1c1cc(C2(S(C)(=N)=O)CC2)nc(-c2ccnc3[nH]ccc23)n1 (stereo not given) + NC1CC1c1ccc(-c2cccc(O)c2)cc1
Response given: f
